Molecular target: HDGF PWWP domain (human, UniProt P51858 1-100)
Sequence (P51858 1-100): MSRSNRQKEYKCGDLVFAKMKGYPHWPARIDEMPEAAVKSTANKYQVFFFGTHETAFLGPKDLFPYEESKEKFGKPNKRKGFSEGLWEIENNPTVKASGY
Experiment: PIFQ (Cy3 fluorescence quenching); 10 nM DNA; approximation model; less reliable (protein depletion); HDGF assays: 46 mM NaCl, 0.9 mM KCl, 3.3 mM Na2HPO4, 0.66 mM KH2PO4, pH 7.4; at least 1 h on ice; 1-10 nM Cy3 DNA, 10 pM-100 nM protein; RecA dsDNA control at pH 7.5
Conditions: protein: recombinant; label: 5' Cy3
pKd: −log10 of the molar value.
TEST READOUT: pKd

BINDER	TEST READOUT	OBSERVED MEASUREMENT
15 bp SMYD1 dsDNA (5' Cy3) (dsDNA) DNA 1: TTCAAGACCAGCCTG DNA 2: CAGGCTGGTCTTGAA	pKd	8.80
